measuredTarget: Ataxin-2 (Homo sapiens) (UniProt Q99700)
Sequence (Q99700 whole entry): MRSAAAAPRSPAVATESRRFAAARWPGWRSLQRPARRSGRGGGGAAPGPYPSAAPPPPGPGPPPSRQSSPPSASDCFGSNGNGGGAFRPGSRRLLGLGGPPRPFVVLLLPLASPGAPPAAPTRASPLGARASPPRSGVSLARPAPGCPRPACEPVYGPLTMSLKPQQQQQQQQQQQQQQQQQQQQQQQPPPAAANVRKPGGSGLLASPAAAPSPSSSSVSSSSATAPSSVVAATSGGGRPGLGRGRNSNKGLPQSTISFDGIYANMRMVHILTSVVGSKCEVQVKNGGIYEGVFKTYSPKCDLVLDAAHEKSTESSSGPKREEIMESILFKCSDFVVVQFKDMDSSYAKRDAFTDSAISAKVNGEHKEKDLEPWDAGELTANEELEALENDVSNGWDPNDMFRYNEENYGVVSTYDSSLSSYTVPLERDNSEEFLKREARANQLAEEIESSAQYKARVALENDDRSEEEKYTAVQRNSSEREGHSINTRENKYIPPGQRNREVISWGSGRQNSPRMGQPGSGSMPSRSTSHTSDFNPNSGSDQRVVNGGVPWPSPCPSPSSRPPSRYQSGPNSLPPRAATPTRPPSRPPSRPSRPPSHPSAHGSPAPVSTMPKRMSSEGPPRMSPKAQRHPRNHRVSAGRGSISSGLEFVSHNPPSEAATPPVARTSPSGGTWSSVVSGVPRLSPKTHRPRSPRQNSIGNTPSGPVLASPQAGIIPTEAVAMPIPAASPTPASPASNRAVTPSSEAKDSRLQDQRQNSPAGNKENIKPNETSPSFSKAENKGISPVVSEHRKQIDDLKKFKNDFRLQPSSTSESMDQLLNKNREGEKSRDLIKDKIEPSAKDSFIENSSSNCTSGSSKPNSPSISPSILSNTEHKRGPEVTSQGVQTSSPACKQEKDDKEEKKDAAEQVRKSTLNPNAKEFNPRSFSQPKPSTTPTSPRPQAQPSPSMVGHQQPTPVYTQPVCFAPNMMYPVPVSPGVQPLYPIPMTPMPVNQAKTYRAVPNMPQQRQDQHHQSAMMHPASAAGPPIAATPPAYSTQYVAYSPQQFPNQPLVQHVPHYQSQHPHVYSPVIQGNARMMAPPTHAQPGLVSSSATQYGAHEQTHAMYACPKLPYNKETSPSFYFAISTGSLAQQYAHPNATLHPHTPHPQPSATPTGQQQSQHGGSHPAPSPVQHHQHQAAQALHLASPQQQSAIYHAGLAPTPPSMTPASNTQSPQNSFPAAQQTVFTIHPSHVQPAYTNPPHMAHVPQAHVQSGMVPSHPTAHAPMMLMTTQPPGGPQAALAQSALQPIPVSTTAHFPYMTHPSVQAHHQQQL
testDescription: qHTS for Inhibitors of ATXN expression.
Assay type: functional
The campaign covered roughly 400,000 compounds. About 2,100 (0.53%) were called active. Roughly 14% stayed inconclusive and do not appear here. How the calls were made is not given here. Shown is part of a subset that was picked to be rich in actives.
Labels: y for active, n for inactive

compound="O=C(COc1ccc([N+](=O)[O-])cc1)N(C1CCCCC1)C1CCS(=O)(=O)C1 (stereo unspecified)" label=n
compound=C#CCn1/c(=N/C(=O)CSC(C)=O)sc2cc(F)ccc21 label=y
compound=COc1cc(/C=C2/C(=O)c3cccc([N+](=O)[O-])c3C2=O)c(Br)cc1O label=y
compound=CN(C)CCN=c1cc(-c2ccccc2)oc2ccc(Cl)cc12 label=n
compound="CC(C)C1OC2(C)OC(=N)C1(C#N)C(C#N)(C#N)C2c1ccccc1 (stereo unspecified)" label=n
compound=COc1ccccc1-c1nnc(Sc2nc([N+](=O)[O-])nn2C)o1 label=y
compound=COc1ccccc1-c1nnc(-c2ccc(C)cc2)o1 label=n
compound=CC(=O)Oc1cc2oc(=O)cc(C)c2cc1OC(C)=O label=n
compound=CC(=O)Nc1cc2ccc(OC(C)=O)cc2oc1=O label=n
compound=COc1ccccc1NC(=O)CSc1nnc(-c2ccoc2C)o1 label=n
compound="CCCCC(NC(=O)Cc1c(C)c2cc3c4c(oc3cc2oc1=O)CCCC4)C(=O)O (stereo unspecified)" label=n

* * *

measuredTarget: Ataxin-2 (Homo sapiens) (UniProt Q99700)
testDescription: qHTS for Inhibitors of ATXN expression.
Type: functional
Hit rate of the full screen: of about 400,000 compounds, about 2,100 (0.53%) were called active. Roughly 14% stayed inconclusive and do not appear here. The rule behind the calls is not given here. What follows is part of a selection rich in actives, with near analogues and random picks from the rest.
Outcome codes: T (active), F (inactive)

molecule=CCOc1ccc(CCN2C(=O)C(=O)N([C@@H](CC(C)C)CN3CCC[C@@H]3CN3C(=O)C(=O)NC[C@@H]3Cc3ccccc3)C[C@@H]2CC(C)C)cc1 label=T
molecule="O=C(NCCCn1ccnc1)C(=O)NCC1OCCN1S(=O)(=O)c1ccc(F)cc1 (stereo not given)" label=F
molecule=O=C(COC(=O)C1=Cc2ccccc2OC1)NCc1ccco1 label=F
molecule=CCOc1ccc(CCN2C(=O)C(=O)N([C@@H](CC(C)C)CN3CCC[C@H]3CN3C(=O)C(=O)NC[C@@H]3Cc3ccccc3)C[C@@H]2Cc2ccccc2)cc1 label=T
molecule=CCCCN1CCc2c1nc1ccc(Br)cc1c2N label=T
molecule=O=C(/C=C/c1ccc(S(=O)(=O)N2CCOCC2)cc1)NCCCn1ccnc1 label=F
molecule=O=C(O)C1CCN(c2nc(-c3ccccc3)c3cc(Br)ccc3n2)CC1 label=F
molecule="COc1ccc(C2CC(c3cccs3)=NN2c2ccc(C=O)cc2)cc1 (stereo not given)" label=F
molecule=O=C(C[C@H]1C[C@H](C(=O)N2CCCCC2)[C@@]2(CCc3ccccc3)c3[nH]c4ccc(Cl)cc4c3CCN2C1=O)NCCCn1ccnc1 label=T
molecule=Cc1cc(N(C)Cc2ccccc2)nc2cc(O)ccc12 label=F

* * *

measuredTarget: Ataxin-2 (Homo sapiens) (UniProt Q99700)
testDescription: qHTS for Inhibitors of ATXN expression.
Assay type: functional
Hit rate of the full screen: of about 400,000 compounds, about 2,100 (0.53%) were called active. Inconclusive results (about 14%) are left out. How the calls were made is not given here. For the sample, actives were picked, then their nearest neighbours and some compounds at random.
Outcomes: 1 (active), -1 (inactive)

compound="COc1ccc(C2=Nc3nc(-c4ccccc4)cn3C(c3ccc(OC)cc3)C2)cc1 (stereo not given)" label=-1
compound="COc1ccc(C2=CC(c3ccc(F)cc3)n3nnnc3N2)cc1 (stereo not given)" label=-1
compound=CCCCCCN1C[C@H](n2cc(-c3ccc(F)cc3)nn2)[C@@H](O)C[C@@H]1c1ccc(C)cc1 label=1
compound=O=C(NC1CCCCCC1)c1cc2c(=O)n3ccccc3nc2s1 label=-1
compound=CCCn1c(=N)c(C#N)cc2c(=O)n3ccccc3nc21 label=-1
compound=O=C(C1=C[C@@H](C2CCCCC2)C[C@@H](OCc2ccc(CO)cc2)O1)N1CCN(Cc2ccccc2)CC1 label=1
compound=O=C(O)c1ccc(S(=O)(=O)N2CCN(c3ccccn3)CC2)cc1 label=-1
compound=Cc1ccc([C@H]2C[C@H](O)[C@@H](n3cc(C4CC4)nn3)CN2Cc2cccs2)cc1 label=1
compound=COC(=O)c1c(N=C(S)NNC(=O)c2ccc(Cl)s2)sc(C(=O)N(C)C)c1C label=1
compound=CCn1c(/C=C/c2cc[n+](C)cc2)nc2ccccc21 label=-1

* * *

measuredTarget: Ataxin-2 (Homo sapiens)
testDescription: qHTS for Inhibitors of ATXN expression.
Type: functional
In all, about 400,000 compounds went through this assay and about 2,100 (0.53%) were called active. Inconclusive results (about 14%) are left out. For the sample, actives were picked, then their nearest neighbours and some compounds at random.
endpointName: Potency

compound="CC(C)(C)c1ccc(C(=O)N2CCC(=O)N(C(COCc3ccccc3)Cc3ccccc3)CC2)cc1 (stereo not given)" endpointname=Potency measvalue="28.2 µM (active)"
compound=CCc1nccn1C(=O)c1cnn2c(C(F)F)cc(-c3ccc(C)cc3)nc12 endpointname=Potency measvalue="31.6 µM (active)"
compound=CC(C)(C)c1ccc(C(=O)N2CCC(=O)N([C@H](COCc3ccccc3)Cc3ccccc3)CC2)cc1 endpointname=Potency measvalue="35.5 µM (active)"
compound=CC(C)c1ccc2[nH]c(O)c(N=NC(=O)c3cccc(S(=O)(=O)Nc4cccc(Cl)c4)c3)c2c1 endpointname=Potency measvalue="1.41 µM (active)"
compound=COc1ccc(-c2cc(C(F)F)n3ncc(C(=O)Nc4cc(C)on4)c3n2)cc1 endpointname=Potency measvalue=inactive
compound="O=C(COC(=O)c1ccc2[nH]c3c(c2c1)CCCC3)NC1CCS(=O)(=O)C1 (stereo not given)" endpointname=Potency measvalue=inactive
compound=CCCNC(=O)c1cnn2c(C(F)F)cc(-c3ccccc3)nc12 endpointname=Potency measvalue=inactive
compound=N#Cc1cc2c(=O)n3ccccc3nc2n(-c2ccc(Cl)cc2)c1=O endpointname=Potency measvalue=inactive
compound=O=C(CCNC(=O)c1ccccc1)Nc1nc2ccccc2s1 endpointname=Potency measvalue=inactive
compound=CC(C)c1ccc2[nH]c3c(c2c1)CCC/C3=N\NC(=O)c1ccncc1 endpointname=Potency measvalue=inactive

* * *

measuredTarget: Ataxin-2 (Homo sapiens) (UniProt Q99700)
testDescription: qHTS for Inhibitors of ATXN expression.
Format: functional
About 2,100 (0.53%) of roughly 400,000 compounds were called active. Not shown: some 14% with an inconclusive outcome. What follows is part of a selection rich in actives, with near analogues and random picks from the rest.
endpointName: Potency

compound=Cc1cc(C)c(S(=O)(=O)Nc2cccc(C(=O)O)c2)cc1S(=O)(=O)Nc1cccc(C(=O)O)c1 measvalue=inactive
compound=COC(=O)c1ccc(NC(=O)CS(=O)(=O)c2ccccc2)cc1 measvalue=inactive
compound=CCOC(=O)c1cnc(-c2ccccc2O)nc1Cl measvalue=inactive
compound=COc1cc2nc(CN3CCN(S(=O)(=O)c4ccc(C)c(C)c4)CC3)nc(O)c2cc1OC measvalue=inactive
compound=CCOC(=O)C1=Nc2ccccc2C1=[N+]=[N-] measvalue="39.8 µM (active)"
compound="CCOC(=O)C1C(C(=O)NN)C1C(=O)Nc1ccccc1 (stereo unspecified)" measvalue=inactive
compound=O=C1C(Nc2ccccc2)=C/C(=N/S(=O)(=O)c2cccs2)c2ccccc21 measvalue="8.91 µM (active)"
compound="CNC(=O)c1sc(N2N=C3/C(=C\\c4ccccc4)CCCC3C2c2ccccc2)nc1C (stereo unspecified)" measvalue=inactive
compound=Cc1ccc(S(=O)(=O)/N=C2\C=C(Nc3cccc(C(=O)O)c3)C(=O)c3ccccc32)c(C)c1 measvalue="28.2 µM (active)"
compound=CCOC(=O)c1cc2c(=O)n3ccccc3nc2n(C(C)C)/c1=N\C(=O)c1c(-c2c(F)cccc2Cl)noc1C measvalue=inactive
compound=COc1cc2nc(N3CCN(c4cc(C)ccc4C)CC3)nc(N)c2cc1OC measvalue="39.8 µM (active)"
compound=Cc1ccccc1N1CCN(Cc2nc(Cc3ccccc3)no2)CC1 measvalue=inactive
compound=COc1cc(Br)cc(/C=N/NC(=O)Cc2ccccc2)c1O measvalue=inactive
compound=O=S(=O)(O)c1cccc2cccc(Nc3ccccc3)c12 measvalue=inactive
compound=O=C(O)c1ccc(NC2=C/C(=N/S(=O)(=O)c3ccccc3)c3ccccc3C2=O)cc1 measvalue="39.8 µM (active)"
compound=Cc1ccc(S(=O)(=O)N2CCN(CC(=O)N3CCCC3)CC2)c(C)c1 measvalue=inactive
compound=CC[C@@]1(O)C(=O)OCc2c1cc1n(c2=O)Cc2cc3c(CN(C)C)c(O)ccc3nc2-1 measvalue=inactive
compound=CCCc1nnc(SCC(=O)Nc2cccc(Cl)c2Cl)o1 measvalue=inactive
compound=NC(=S)N/N=C/c1c[nH]c2ccc(OCc3ccccc3)cc12 measvalue="12.6 µM (active)"
compound="Cc1c(OC(C)C(=O)NCCN2CCOCC2)ccc2c3c(c(=O)oc12)CCC3 (stereo unspecified)" measvalue=inactive
compound=C=CCN1C(=O)/C(=C/N(C)C)S/C1=N\S(=O)(=O)c1cccs1 measvalue=inactive
